src = PubChem BioAssay AID1963840

Please provide measured viability, T/C for the entries that follow.
Tested on: 695427-040-R-J1-PDC complex spheroid viability
measurementNotes: Anticancer human tumor 695427-040-R-J1-PDC patient-derived colon adenocarcinoma cell line growth inhibition [POLQ]
reportedConditions: second compound 0.316 µM; first compound 1 µM; hits give low values
Procedure: Multicellular complex tumor spheroid response to Polymerase (POL) inhibitors (novobiocin, ART-558, RP6685) in combination with a variety of drugs and investigational agents in selected tumor cell lines The POL inhibitors (novobiocin, ART-558, and RP6685) were evaluated both individually and in combination with standard of care and investigational anticancer small molecules within a complex spheroid model of solid tumors. . […]

Some compounds with recorded viability, T/C:
* COc1ccc([C@@H](O)c2cc(-c3ncnc4cc(N5CCOCC5)ccc34)c(F)cc2Cl)nn1 + COC1C(OC(N)=O)C(O)C(Oc2ccc3c(O)c(NC(=O)c4ccc(O)c(CC=C(C)C)c4)c(=O)oc3c2C)OC1(C)C | 89.9%
* O=c1[nH]cc(F)c(=O)[nH]1 + Cc1cccc(N(C)C(=O)C2C(O)CCN2c2nc(C)cc(C(F)(F)F)c2C#N)c1 | 104%
* C=CCn1c(=O)c2cnc(Nc3ccc(N4CCN(C)CC4)cc3)nc2n1-c1cccc(C(C)(C)O)n1 + COC1C(OC(N)=O)C(O)C(Oc2ccc3c(O)c(NC(=O)c4ccc(O)c(CC=C(C)C)c4)c(=O)oc3c2C)OC1(C)C | 70.9%
* CCCS(=O)(=O)Nc1ccc(F)c(C(=O)c2c[nH]c3ncc(-c4ccc(Cl)cc4)cc23)c1F + Nc1ccc(C#CCN(C(=O)Cc2ncc(C(F)(F)F)cc2C(F)(F)F)c2ccc(F)cc2)nn1 | 102%

Field: next compound
Which viability, T/C value belongs to O=C(Nc1ccc(O)c(NS(=O)(=O)c2ccc(F)cc2)c1)c1ccc(-c2ccccc2)cc1 + COC1C(OC(N)=O)C(O)C(Oc2ccc3c(O)c(NC(=O)c4ccc(O)c(CC=C(C)C)c4)c(=O)oc3c2C)OC1(C)C ?
105%

###

System: 695427-040-R-J1-PDC complex spheroid viability
measurementNotes: Anticancer human tumor 695427-040-R-J1-PDC cell line growth inhibition [POLQ];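 note: spheroids exposed to compounds for seven days; 100% = DMSO vehicle control viability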
reportedConditions: second compound 0.0316 µM; first compound 10 µM; hits give low values
measuredMetric: viability, T/C (%)
One number for each entry, in %.

Some compounds with recorded viability, T/C:
• C=CC(=O)N1CCN(c2nc(=O)n(-c3c(C)ccnc3C(C)C)c3nc(-c4c(O)cccc4F)c(F)cc23)C(C)C1 (stereo not drawn) + Cc1cccc(N(C)C(=O)C2C(O)CCN2c2nc(C)cc(C(F)(F)F)c2C#N)c1 = 110
• C=CC(=O)N1CCN(c2nc(=O)n(-c3c(C)ccnc3C(C)C)c3nc(-c4c(O)cccc4F)c(F)cc23)C(C)C1 (stereo not drawn) + Nc1ccc(C#CCN(C(=O)Cc2ncc(C(F)(F)F)cc2C(F)(F)F)c2ccc(F)cc2)nn1 = 104

Field: next compound
Which viability, T/C value belongs to C#Cc1c(F)ccc2cc(O)cc(-c3ncc4c(N5CC6CCC(C5)N6)nc(OCC56CCCN5CC(F)C6)nc4c3F)c12 (stereo not drawn) + COC1C(OC(N)=O)C(O)C(Oc2ccc3c(O)c(NC(=O)c4ccc(O)c(CC=C(C)C)c4)c(=O)oc3c2C)OC1(C)C ?
96.5
